B1: Gal4AD-Sds22 [S. cerevisiae] / Gal4(1-147)-Glc7 [S. cerevisiae] (parent complex)
chain 1: MDKNSVNKDSEEKDERHKIEVVDDTNPDFITADSELTQDLPDDVEVIDLVHLKIKSLEDLNLYRFKNLKQLCLRQNLIESISEVEVLPHDKIVDLDFYDNKIKHISSNVNKLTKLTSLDLSFNKIKHIKNLENLTDLENLYFVQNSISKIENLSTLKSLKNLELGGNKVHSIEPDSFEGLSNLEEIWLGKNSIPRLINLHPLKNLKILSIQSNKLKKIENLEELTNLEELYLSHNFITKIEGLEKNLKLTTLDVTSNKITSLENLNHLSNLTDIWASFNKIDQSFESLGENLSALSRLETIYLEGNPIQLENKTSYRRKLTMNLPPSLQKIDATYIRG
chain 2: MDSQPVDVDNIIDRLLEVRGSKPGQQVDLEENEIRYLCSKARSIFIKQPILLELEAPIKICGDIHGQYYDLLRLFEYGGFPPESNYLFLGDYVDRGKQSLETICLLLAYKIKYPENFFILRGNHECASINRIYGFYDECKRRYNIKLWKTFTDCFNCLPIAAIIDEKIFCMHGGLSPDLNSMEQIRRVMRPTDIPDVGLLCDLLWSDPDKDIVGWSENDRGVSFTFGPDVVNRFLQKQDMELICRAHQVVEDGYEFFSKRQLVTLFSAPNYCGEFDNAGAMMSVDESLLCSFQILKPAQKSLPRQAGGRKKK

Variants of: B1
Experiment: two-hybrid assay (β-galactosidase activity); three independent PJ69-4A transformants; parent: 23; read off a plot
quantity-name: response

>  <variant-notation>
chain 1 E79G, chain 1 L159Q, chain 1 L295I

>  <quantity-name>
response

>  <measurement>
~6

$$$$
>  <variant-notation>
chain 1 F65L, chain 1 Y141H, chain 1 I210T

>  <quantity-name>
response

>  <measurement>
~13

$$$$
>  <variant-notation>
chain 1 D273A

>  <quantity-name>
response

>  <measurement>
~19

$$$$
>  <variant-notation>
chain 1 W275A

>  <quantity-name>
response

>  <measurement>
~11

$$$$
>  <variant-notation>
chain 1 D119A

>  <quantity-name>
response

>  <measurement>
~11

$$$$
